Tested on: SNB-78 CNS
test summary: NCI tumour cell line growth inhibition, 48 h
measured metric: TGI

In the examples that follow, each entry is paired with its recorded TGI.
O=C(NCCOC(=O)CCCCCCCCC(=O)OCCNC(=O)NC(=O)c1cn(Cc2ccccc2)c(=O)[nH]c1=O)NC(=O)c1cn(Cc2ccccc2)c(=O)[nH]c1=O; > 100 µM
COc1cc2ccc(CC(=O)O)cc2cc1OC; > 100 µM
Cc1ccccc1NC(=O)C(=O)CC(=O)c1sc(-n2nc(-c3ccccc3)cc2-c2ccccc2)nc1C; > 100 µM

Input: Using the record for CN(C)CC(=O)N1CCc2c([nH]c3ccccc23)C1c1cccnc1 (centres undefined) , state its measured TGI.
Output: > 100 µM

---

System: LOX IMVI melanoma
test summary: NCI tumour cell line growth inhibition, 48 h
measured metric: TGI

Here are 4 molecules together with their reported answers.
CCOC1OC(C)(C=C(C#N)C#N)CCC1C (configuration not stated); > 75.8 µM
c1ccc(CN2CCC(CNc3ncnc4ccccc34)C2)cc1 (configuration not stated); > 100 µM
CCOC(=O)CC1(N)CC2c3ccccc3OC(=O)C2C(=O)N1 (configuration not stated); > 100 µM
CCOC(=O)CC1C(C(=O)OCC)=Cn2c([nH]c3cccc4cccc2c43)=C1C(=O)OCC (configuration not stated); > 100 µM

Input: In one line, give reported TGI of the entry CCOC(=O)C(=O)Nc1nc2ccc(OC)cc2s1 .
Output: > 100 µM

Input: Give a short answer stating reported TGI for O=C(/C=N/O)Nc1cccc(Cl)c1I .
Output: > 100 µM

Input: Dear colleague, please send me the reported TGI for CC1(C)N=C(N)N=C(N)N1c1ccc(CCCCCCc2ccc(S(=O)(=O)F)cc2)cc1 when you can.
Output: > 20.9 µM

Input: Give me measured TGI, please, for this molecule: COc1cc(C(=O)/C=C/c2c(C)n([O-])c3ccc(Cl)cc3[n+]2=O)cc(OC)c1OC
Output: > 100 µM

Input: Hello, please tell me recorded TGI for this one: CC(=O)OCCc1cc2ccccc2oc1=O
Output: > 100 µM

---

Listed below: TGI values for each entry.
Tested on: MOLT-4 leukemia
test summary: NCI tumour cell line growth inhibition, 48 h

Below: 4 compounds and their reported TGI.
COc1cc([C@H]2c3cc4c(cc3[C@H](NCc3ccc(F)cc3)C3COC(=O)[C@H]32)OCO4)cc(OC)c1O (stereo not given in full); 6.42 µM
CCOC(=O)CC1C(C(=O)OCC)=Cn2c([nH]c3cccc4cccc2c43)=C1C(=O)OCC (stereo not given); > 100 µM
COc1cc(C2C3=C(NC(=O)C2C#N)c2ccc4ccccc4c2OCC3)cc(OC)c1OC (stereo not given); > 100 µM
COc1cc(OC)c(OC)cc1/C=C\c1ccnc2ccccc12; > 90.2 µM

Input: Please report TGI for the following compound: CN=C1C=C(/N=C2/C=C(N/C(=C\C#N)C(C)(C)O)OC2(C)C)OC1(C)C
Output: > 100 µM

Input: Identify TGI associated with the compound C/C(=C\C(=O)O)C(=O)N(C)c1ccccc1I
Output: > 100 µM

Input: Give the reported value of TGI for this record: Clc1ccc(C2=CC(c3ccccc3)N3C(=N[C@H]4CCCC[C@@H]43)N2)cc1 (stereo not given in full)
Output: 12.5 µM

Input: Fill in TGI for record O=C(CC/C(CC(=O)c1ccc(Cl)cc1)=N\O)Nc1cccc(Cl)c1
Output: > 100 µM

Input: Give the reported value of TGI for this record: CC(=O)Nc1ccc2c(c1)[nH]c(=O)c1cc(Cl)ccc12
Output: 8.53 µM

Input: Give recorded TGI. O=c1ccc(=O)c2c1c1[nH]c3ccccc3c1c1c(=O)c3ccccc3c(=O)c21
Output: 7.55 µM

Attribution: PubChem BioAssay (NCI)
